tested.on: H. halys OBP4 (Halyomorpha halys, UniProt A0A1L2JGP5)
Sequence (A0A1L2JGP5 20-212): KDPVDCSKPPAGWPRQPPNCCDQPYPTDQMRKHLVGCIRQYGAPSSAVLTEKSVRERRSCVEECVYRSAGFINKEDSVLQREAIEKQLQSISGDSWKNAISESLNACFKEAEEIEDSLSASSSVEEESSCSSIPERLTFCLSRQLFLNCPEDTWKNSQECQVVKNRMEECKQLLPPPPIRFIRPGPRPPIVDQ
assay.method.text: Competitive fluorescence-binding assay with 1-NPN as probe
test.conditions: OBP4; Kd = [IC50]/(1 + [1-NPN]/K1-NPN); OBP and 1-NPN 2 μM
pKd: −log10 of the molar value.
experimental.readout: pKd

[[record]]
compound = "CCCCCCC/C=C/C=O [(E)-2-decenal]"
experimental_readout = "pKd"
value_measured = 4.58


====

tested.on: UniProtKB A0A1L2JGP5
assay.method.text: Competitive fluorescence-binding assay with 1-NPN as probe
test.conditions: OBP4; concentration at which [OBP/1-NPN] fluorescence declined to half
experimental.readout: IC50

[[record]]
compound = "CCCCCCC/C=C/C=O [(E)-2-decenal]"
value_measured = "31.3 µM"


Taken from paper PMC6243750.
